Ref: ChEMBL document CHEMBL5608194

biological target: UniProt P81908; assay: Inhibition of equine serum BChE using butyrylthiocholine as substrate by Ellman's method
Sequence (P81908 whole entry): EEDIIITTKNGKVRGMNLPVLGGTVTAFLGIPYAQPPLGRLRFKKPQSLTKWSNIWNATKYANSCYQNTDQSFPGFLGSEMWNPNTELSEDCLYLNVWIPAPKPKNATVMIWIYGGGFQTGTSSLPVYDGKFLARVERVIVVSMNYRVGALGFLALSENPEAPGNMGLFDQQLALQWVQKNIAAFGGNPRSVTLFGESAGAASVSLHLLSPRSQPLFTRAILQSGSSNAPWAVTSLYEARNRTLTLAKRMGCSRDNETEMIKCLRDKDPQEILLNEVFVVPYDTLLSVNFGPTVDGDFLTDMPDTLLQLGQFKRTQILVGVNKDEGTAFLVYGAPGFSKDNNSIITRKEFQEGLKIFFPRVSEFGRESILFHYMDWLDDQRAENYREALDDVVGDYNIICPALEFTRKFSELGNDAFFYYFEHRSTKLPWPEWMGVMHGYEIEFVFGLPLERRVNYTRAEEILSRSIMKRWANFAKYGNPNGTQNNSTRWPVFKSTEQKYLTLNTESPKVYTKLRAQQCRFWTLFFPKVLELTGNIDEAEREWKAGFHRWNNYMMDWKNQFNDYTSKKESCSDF
measured quantity: pIC50
In plain terms, pIC50 is the concentration in mol/L turned into minus its base-10 logarithm.

What measured pIC50 goes with Brc1ccc2nc3c(n2c1)C1(CCCC1)Nc1ccccc1-3 ?
4.97

What measured pIC50 goes with CC1(C)Nc2ccccc2-c2nc3ccccn3c21 ?
4.54

What measured pIC50 goes with c1ccc2c(c1)NC1(CCCCC1)c1c-2nc2ccccn12 ?
4.70

What measured pIC50 goes with O=c1c2ccccc2[se]n1-c1ccccc1 [EBSELEN] ?
4.92

What measured pIC50 goes with Brc1ccc2nc3c(n2c1)C1(CCCCC1)Nc1ccccc1-3 ?
4.71

What measured pIC50 goes with Cc1ccn2c3c(nc2c1)-c1ccccc1NC31CCCCC1 ?
4.98

----------
Would you kindly list Ratio IC50 for each of these molecules?
test: Selectivity index, ratio of IC50 for electric eel AChE to IC50 for equine serum BChE
# print the numeric value only

What measured Ratio IC50 goes with c1ccc2c(c1)NC1(CCCCC1)c1c-2nc2ccccn12 ?
1.72

What measured Ratio IC50 goes with CC1(C)Nc2ccccc2-c2nc3ccccn3c21 ?
1.68

What measured Ratio IC50 goes with Brc1ccc2nc3c(n2c1)C1(CCCC1)Nc1ccccc1-3 ?
2.51

What measured Ratio IC50 goes with O=c1c2ccccc2[se]n1-c1ccccc1 ?
1.05

What measured Ratio IC50 goes with Cc1ccn2c3c(nc2c1)-c1ccccc1NC31CCCCC1 ?
1.57

What measured Ratio IC50 goes with Brc1ccc2nc3c(n2c1)C1(CCCCC1)Nc1ccccc1-3 ?
1.02

----------
tested on: SH-SY5Y; experiment: Neuroprotective activity against ATRA-differentiated and 3-NPA induced cell death in human SH-SY5Y cells assessed as cell death at 1 uM incubated for 48 hrs by propidium iodide staining based fluorescence assay (reference value: 100%); type: functional
measured quantity: Activity (%)
Output spec: scalar in %, unitless text.

What measured Activity goes with Cc1ccn2c3c(nc2c1)-c1ccccc1NC31CCCCC1 ?
62.6

What measured Activity goes with Cc1cccn2c3c(nc12)-c1ccccc1NC3(C)C ?
69.9

What measured Activity goes with O=c1c2ccccc2[se]n1-c1ccccc1 [EBSELEN] ?
112

What measured Activity goes with Cc1ccn2c3c(nc2c1)-c1ccccc1NC31CCC(C)CC1 (stereo not drawn) ?
66.8

What measured Activity goes with CC(=O)N[C@@H](CS)C(=O)O [ACETYLCYSTEINE] ?
80.8

What measured Activity goes with Cc1cccn2c3c(nc12)-c1ccccc1NC31CCCC1 ?
65.3

What measured Activity goes with c1ccc2c(c1)NC1(CCCC1)c1c-2nc2ccccn12 ?
57.7

What measured Activity goes with c1ccc2c(c1)NC1(CCCCC1)c1c-2nc2ccccn12 ?
64

----------
Would you kindly list Activity for each of these compounds?
tested on: SH-SY5Y; assay: Neuroprotective activity against ATRA-differentiated and MPP+ induced cell death in human SH-SY5Y cells assessed as cell death at 10 uM incubated for 24 hrs by propidium iodide staining based fluorescence assay (reference value: 100%); type: functional
Output spec: scalar in %, unitless text.

What measured Activity goes with Cc1cccn2c3c(nc12)-c1ccccc1NC3(C)C ?
70.8

What measured Activity goes with CC1CCC2(CC1)Nc1ccccc1-c1nc3ccc(Br)cn3c12 (configuration not stated) ?
126.5

What measured Activity goes with Cc1cccn2c3c(nc12)-c1ccccc1NC31CCCCC1 ?
45.6

What measured Activity goes with c1ccc2c(c1)NC1(CCCCC1)c1c-2nc2ccccn12 ?
52.7

What measured Activity goes with Cc1ccn2c3c(nc2c1)-c1ccccc1NC31CCCCC1 ?
75

What measured Activity goes with Brc1ccc2nc3c(n2c1)C1(CCCCC1)Nc1ccccc1-3 ?
33.9

What measured Activity goes with c1ccc2c(c1)NC1(CCCC1)c1c-2nc2ccccn12 ?
42.6
